Provide the reported CC50 at 24 h of each item.
- experiment: in vitro
- measurement_parameters: african green monkey, cos-7 cells

Query: CC50 at 24 h; subject: O=C(C#CCN1CCC(O)(c2ccc(Cl)cc2)CC1)c1ccc(-c2ccccc2)cc1 [UCSF231] < 5 µM

Reported CC50 at 24 h for O=C(C#CCN1CCC(O)(c2ccc(Cl)cc2)CC1)c1cccc(-c2ccccc2)c1 [UCSF142] : what is it? < 5 µM

Return reported CC50 at 24 h; argument: O=C(C#CCN1CCC(O)(c2ccc(Cl)cc2)CC1)c1ccccc1 [UCSF86] < 10 µM

* * *

- experiment: in vitro
quantity_measured: CC50 at 6 h

For OC1(c2ccc(Cl)cc2)CCN(CC#CC2(c3ccccc3)CO2)CC1 (stereo not drawn) , what is its reported CC50 at 6 h? 100 to 165 µM

Entry `C=CCCCC1(C(=O)c2ccc(N3CCC(O)(c4ccc(Cl)cc4)CC3)cc2)CC1` : reported CC50 at 6 h = ? > 250 µM

Given O=C(CCC[N+]1([O-])CCC(O)(c2ccc(Cl)cc2)CC1)c1ccc(F)cc1 (stereo not drawn) , state its recorded CC50 at 6 h. > 500 µM

* * *

Consider the following compounds; for each one, report its CC50 at 6 h.
- experiment: in vitro

So what does the record say about CC50 at 6 h for O=C(CCCN1CCC(O)(c2ccccc2)CC1)c1ccccc1 [UCSF34] ? > 500 µM

Return reported CC50 at 6 h; argument: O=C(c1ccc(N2CCC(O)(c3ccc(Cl)cc3)CC2)cc1)C1(CC#CCO)CC1 [UCSF83] > 250 µM

Form field: reported CC50 at 6 h of C[N+]1(CCCC(=O)c2ccc(F)cc2)CCC(O)(c2ccc(Cl)cc2)CC1 (stereo not drawn) [UCSF5] > 500 µM

* * *

- tested_target: HIV-1 protease (Human immunodeficiency virus type 1 group M subtype B)
- experiment: biochemical
- measurement_parameters: HIV-1 Protease IC50 (μM) 1M NaCl
quantity_measured: IC50 (µM)
Number only, in µM; omit the unit.

Request the reported IC50 associated with O=C(/C=C/CN1CCC(O)(c2ccc(Cl)cc2)CC1)c1ccc(F)cc1 [UCSF191] 80

Fill in: IC50 of O=C(CCC[N+]1([O-])CCC(O)(c2ccc(Cl)cc2)CC1)c1cccc(-c2ccccc2)c1 (stereo not drawn) [UCSF67] is ___ 80

Which IC50 reading was recorded for the compound O=C(C#CCN1CCC(O)(c2ccc(Cl)cc2)CC1)c1cccc(-c2ccccc2)c1 [UCSF142] ? 63

Requested read-out: IC50. Entry: OC1(c2ccc(Cl)cc2)CCN(CCCN(Cc2ccccc2)Cc2ccc(-c3ccccc3)cc2)CC1 [UCSF63] 18

Quick check: IC50 of ON=C(CCCN1CCC(O)(c2ccc(Cl)cc2)CC1)c1ccc(F)cc1 [UCSF4] ? 100

Given OC1(c2ccc(Cl)cc2)CCN(CCCC2(c3ccc(F)cc3)SCc3ccc(cc3)CS2)CC1 [UCSF22] , state its recorded IC50. 100

IC50 lookup needed for OC1(c2ccc(Cl)cc2)CCN(CCCC2(c3ccc(F)cc3)SCc3ccccc3CS2)CC1 [UCSF18] , thanks. 25

I'd like to know its IC50. The compound in question is OC1(c2ccc(Cl)cc2)CCN(CCCC2(c3ccc(F)cc3)OCCS2)CC1 (stereo not drawn) [UCSF78] 39

GET /values?readout=IC50&item= CSCC(O)(CCCN1CCC(O)(c2ccc(Cl)cc2)CC1)c1ccc(F)cc1 (stereo not drawn) [UCSF39] 75

IC50 lookup needed for O=C(CCCN1CCC(O)(c2ccc(Cl)cc2)CC1)c1cccc(-c2ccccc2)c1 [UCSF52] , thanks. 20

# lookup: IC50 of OC1(c2ccc(Cl)cc2)CCN(CCCC2(c3ccc(F)cc3)SCCCCS2)CC1 [UCSF23] 20

What value of IC50 has been recorded for this entry: O=C(CCCN1CCC(O)(c2ccc(Cl)cc2)CC1)c1ccc(-c2ccccc2)cc1 [UCSF36] 32
